Ref: PubChem BioAssay (EPA / NIEHS)

procedure_text: ATG_EGR_CIS: Attagene CIS-FACTORIAL HepG2 Assay for human Early Growth Response 1 (EGR1) (AID 2282938)
particulars: HepG2 Attagene CIS-FACTORIAL EGR reporter mRNA; actives raise or lower the signal
The source made the active and inactive calls. The calls were made as follows: active = hit-call score of the fitted dose curve at least 0.9, where 1 is the maximum; inactive = score below 0.9.
Possible outcomes: active, inactive

1. O=C(OCc1ccccc1)C(=O)OCc1ccccc1 : inactive
2. CC1CC(OC(=O)c2ccccc2O)CC(C)(C)C1 (centres undefined) : inactive
3. Nc1cc([N+](=O)[O-])ccc1Cl : inactive
4. CC[C@]12CCCN3CCc4c(n(c5ccccc45)[C@@](O)(C(=O)OC)C1)[C@@H]32 : inactive
5. CC(C)(N)CO : inactive
6. Nc1cccc(S(=O)(=O)c2cccc(N)c2)c1 : inactive
7. O=C(O)CCCCCCCCCCC(=O)O : inactive
8. CC1=CCC(O)(C(C)C)CC1 (centres undefined) : inactive
9. CC(C)=CCC/C(C)=C/COC=O : inactive
10. CC(C)(CO)[N+](=O)[O-] : inactive
11. CCn1c2ccccc2c2cc(N)ccc21 : inactive
12. CCCCCCOC(=O)CCCCC : inactive
13. O=S(=O)(O)c1ccc(O)c2ncccc12 : inactive
14. NC(=O)c1ccccc1Cl : active
15. CC(=O)O[C@H](CC(=O)[O-])C[N+](C)(C)C : inactive
16. C[C@]12CC[C@H]3[C@@H](CCC4=CC(=O)CC[C@@]43C)[C@@H]1CC[C@@H]2C(=O)CO : active
17. CCCC(=O)C(C)=O : inactive
18. CCCC[n+]1ccccc1 : inactive
19. CC(C=O)Cc1ccc(C(C)C)cc1 (centres undefined) : inactive
20. O=Cc1ccc(Cl)c([N+](=O)[O-])c1 : active
21. CC(CN1c2ccccc2Sc2ccccc21)N(C)C (centres undefined) : active
22. NNc1nc(-c2ccc(N)cc2)cs1 : inactive
23. O=C(O)Cc1cccc2ccccc12 : inactive
24. O=C1CCc2ccccc2O1 : inactive
25. CC1(C)[C@@H]2CC[C@@]1(C)[C@H](O)C2 : inactive
26. C=C(C)C(=O)Nc1ccc(Cl)c(Cl)c1 : active
27. N#Cc1ccc(CC(=NNC(=O)Nc2ccc(OC(F)(F)F)cc2)c2cccc(C(F)(F)F)c2)cc1 : inactive
28. CC(C)(C)c1n[nH]c(=S)n(N)c1=O : inactive
29. O=C1NC(=O)c2ccccc21 : inactive

----------
Read-out: urokinase plasminogen activator (uPA), PLAU (gene 5328)
procedure_text: BSK_BE3C_uPA: BioMAP Diversity Plus: BE3C Assay for urokinase plasminogen activator (uPA) Biomarker Activity (AID 2283038)
particulars: primary human bronchial epithelial cells; actives raise or lower the signal
Activity calls are given as the source filed them. How the source made its calls: active means hit-call score of the fitted dose curve at least 0.9, where 1 is the maximum; inactive means score below 0.9.
property_measured: AC50

1) CC(=O)O[C@]1(C(C)=O)CC[C@H]2[C@@H]3C[C@H](C)C4=CC(=O)CC[C@]4(C)[C@H]3CC[C@@]21C : inactive
2) CCCCCCCCC=O : inactive
3) O=P(c1ccccc1)(c1ccccc1)c1ccccc1 : inactive
4) C=C[Si](OCC)(OCC)OCC : inactive
5) CC(=O)[C@H]1CC[C@H]2[C@@H]3CC=C4C[C@@H](O)CC[C@]4(C)[C@H]3CC[C@]12C : inactive
6) Cc1ccc(O)c(C(C)(C)C)c1 : 31.6 µM (active)

----------
experimental_target: Hepatocyte nuclear factor 3-beta (Homo sapiens) (UniProt Q9Y261)
Sequence (Q9Y261 whole entry, looked up): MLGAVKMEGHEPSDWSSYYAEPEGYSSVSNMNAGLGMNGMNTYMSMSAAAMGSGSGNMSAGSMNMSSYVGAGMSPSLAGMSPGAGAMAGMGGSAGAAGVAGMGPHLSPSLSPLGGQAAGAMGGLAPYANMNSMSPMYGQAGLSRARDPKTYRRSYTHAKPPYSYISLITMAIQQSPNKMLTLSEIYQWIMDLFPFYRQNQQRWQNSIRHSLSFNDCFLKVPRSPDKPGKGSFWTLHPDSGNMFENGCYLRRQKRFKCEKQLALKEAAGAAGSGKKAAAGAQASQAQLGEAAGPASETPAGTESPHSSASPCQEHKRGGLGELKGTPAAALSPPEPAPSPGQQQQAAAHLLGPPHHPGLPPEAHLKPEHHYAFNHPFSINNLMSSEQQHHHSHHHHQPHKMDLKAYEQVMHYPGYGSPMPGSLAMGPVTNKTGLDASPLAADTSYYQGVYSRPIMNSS
procedure_text: ATG_FoxA2_CIS: Attagene CIS-FACTORIAL HepG2 Assay for human Forkhead box A2 (FOXA2) (AID 2282942)
particulars: HepG2 cis-reporter transcription factor activity, 24 h; actives raise or lower the signal
Procedure: ATG_CIS is a cell-based, multiplexed-readout assay that uses HepG2, a human liver cell line, with measurements taken at 24 hours after chemical dosing in a 24-well plate.ATG_FoxA2_CIS is one of 52 assay component(s) measured or calculated from the ATG_CIS assay. […] This assay endpoint, ATG_FoxA2_CIS, was analyzed with bidirectional fitting relative to DMSO as the negative control and baseline of activity. […]
Activity calls are given as the source filed them. How the source made its calls: active means hit-call score of the fitted dose curve at least 0.9, where 1 is the maximum; inactive means score below 0.9.
Possible outcomes: active, inactive

1) COc1cc(C)cc(O)c1 : inactive
2) Cc1cccc(C)c1C : inactive
3) OCc1cccnc1 : inactive
4) CCC/C=C/C=O : inactive
5) CC(=O)Nc1ccc(CC(=O)O)cc1 : inactive
6) CCCc1ccccc1O : inactive
7) CC(C)=CCCC(C)CC=O (centres undefined) : inactive
8) CCCCCCCCCCCCCCCC(=O)OC[C@H](O)[C@H]1OC(=O)C(O)=C1O : active
9) Clc1sc(Cl)c(Cl)c1Cl : inactive

----------
procedure_text: ATG_VDRE_CIS: Attagene CIS-FACTORIAL HepG2 Assay for human Vitamin D Receptor Element (VDRE) (AID 2282968)
particulars: HepG2 VDRE cis-reporter transcription, actives raise or lower the signal
Active and inactive are the calls of the source. How the source made its calls: active means hit-call score of the fitted dose curve at least 0.9, where 1 is the maximum; inactive means score below 0.9.
Possible outcomes: active, inactive

1. CC(C)c1ccc(C(C)C)cc1 : inactive
2. OCCOCCOCCOCCO : inactive
3. CC(C)OP(=O)(CP(=O)(OC(C)C)OC(C)C)OC(C)C : inactive
4. C=CC(=O)NCOCC(C)C : active
5. Cc1ccc(C(=O)c2cc(O)c(O)c([N+](=O)[O-])c2)cc1 : inactive
6. CNCCCC12CCC(c3ccccc31)c1ccccc12 : active
7. CCCCCC(CO)CCC (centres undefined) : inactive
8. CCOc1ccccc1OCC : inactive
9. Nc1cc(N)cc(C(=O)O)c1 : inactive
10. BrC1CCC(Br)C(Br)CCC(Br)C(Br)CCC1Br (centres undefined) : active
11. CCCc1c(OCCCOc2ccc(OCC(=O)O)cc2)ccc(C(C)=O)c1O : active
12. CCC(=O)/C=C/C1C(C)=CCCC1(C)C (centres undefined) : inactive
13. CC(=O)c1c(C)cc(C(C)(C)C)cc1C : inactive
14. CCCCC(CC)COCCC#N (centres undefined) : inactive
15. O=C(O)CCCCCCCCCCC(=O)O : inactive
16. O=C1CCCCCCCCCCCCCCO1 : inactive
17. O=C1NC(=O)c2ccccc21 : inactive
18. COC(=O)Cc1cccc2ccccc12 : inactive
19. CCCCCCCCC : inactive
20. C=CC(=O)OCC(O)COc1ccccc1 (centres undefined) : active
21. CCCCCCCCCCCCN(CCCCCCCCCCCC)CCCCCCCCCCCC : inactive
22. CC(C#N)(CCC(=O)O)N=NC(C)(C#N)CCC(=O)O (centres undefined) : inactive
23. CC(=O)[O][Al][O]C(C)=O : inactive
24. CN(C)CCOCCN(C)C : inactive
25. C=C(C)[C@@H]1CCC2=CC(=O)C[C@@H](C)[C@]2(C)C1 : inactive
26. CCCCc1ccc(N)cc1 : inactive
27. CCCCNC(=O)NS(=O)(=O)c1ccc(N)cc1 : inactive
28. Cc1ncc([N+](=O)[O-])n1C : inactive
29. COC(C(=O)O)c1ccccc1 (centres undefined) : inactive
30. CC(=O)OCCC(C)CC(C)(C)C (centres undefined) : inactive
31. CCCCOCCOCCSC#N : inactive
32. [Ca+2] : inactive
33. CCCCN : inactive
34. CC(=O)OCCOC(C)=O : inactive
35. Cc1ccccc1C=O : inactive
36. O=Nc1ccc(Nc2ccccc2)cc1 : active
37. CCCCCCCCCCCCCCCC(=O)OC[C@H](O)[C@H]1OC(=O)C(O)=C1O : active
38. CCCCC(CC)COC(=O)/C=C\C(=O)OCC(CC)CCCC (centres undefined) : inactive
39. COc1ccc(Cl)cc1C : inactive
40. O=CCCc1ccccc1 : inactive
41. CC1(C)[C@H](C(=O)OCc2cccc(Oc3ccccc3)c2)[C@@H]1C=C(Cl)Cl : inactive
42. C=CCOc1nc(OCC=C)nc(OCC=C)n1 : inactive
43. C=C[Si](OCC)(OCC)OCC : inactive
44. C=C(C)C(=O)O[C@H]1C[C@@H]2CC[C@@]1(C)C2(C)C : inactive
45. CCN(CC)CCOC(=O)c1ccc(N)cc1 : inactive
46. Clc1cccc(Cl)n1 : inactive
47. Cc1c(Cl)c(=O)oc2cc(O)ccc12 : active
48. CC(CCO)CCCC(C)(C)O (centres undefined) : inactive
49. CC(C=O)Cc1ccc(C(C)C)cc1 (centres undefined) : inactive
50. CC(C)=CCC/C(C)=C/COC=O : inactive
51. Cc1ccc(C(C)C)cc1O : active
52. C=C[C@@H](C)CCC=C(C)C : inactive
53. O=P(c1ccccc1)(c1ccccc1)c1ccccc1 : active
54. NC(N)=NC(=O)c1nc(Cl)c(N)nc1N : inactive
55. CCCCCCOC(=O)CC : inactive
56. CC(=O)[C@H]1CC[C@H]2[C@@H]3CC=C4C[C@@H](O)CC[C@]4(C)[C@H]3CC[C@]12C : active
57. CC(C)(C)C(=O)c1ccccc1 : inactive
58. CC(C)=CCO : inactive
59. O=C1O[C@@H]2[C@@H](O)[C@H](O)O[C@@H]2[C@H]1O : inactive
